Tested on: MIA PaCa-2
Assay: Cytotoxicity assay, pancreatic cell line panel, onvansertib +/- 1 nM INBRX-109
Format: cell-based
Conditions: Homo sapiens, MIA PaCa-2, MIA PaCa-2; onvansertib only
MEASURED_METRIC: pEC50
Remember the convention: pEC50 equals -log10 of concentration in molar.

Q: Output measured pEC50 for this item: "CN1CCN(c2ccc(OC(F)(F)F)c(Nc3ncc4c(n3)-c3c(c(C(N)=O)nn3CCO)CC4)c2)CC1"
Ans: 6.75

---

Tested on: T84
Assay: Cytotoxicity assay, colorectal cancer cell line panel, onvansertib +/- 1 nM INBRX-109
Assay type: cell-based
Details: Homo sapiens, T84, T84; onvansertib only
MEASURED_METRIC: pEC50
The quantity pEC50 is defined as the negative base-10 logarithm of the molar concentration.

Q: Check the records and state pEC50 for "CN1CCN(c2ccc(OC(F)(F)F)c(Nc3ncc4c(n3)-c3c(c(C(N)=O)nn3CCO)CC4)c2)CC1"
Ans: 6.45

---

Tested on: LS 513
Assay: Cytotoxicity assay, colorectal cancer cell line panel, onvansertib +/- 1 nM INBRX-109
Assay type: cell-based
Conditions: Homo sapiens, LS-513, LS 513; onvansertib only
MEASURED_METRIC: pEC50
Would you please state pEC50, meaning minus log10 of the concentration in mol/L, as a bare number?

Q: Identify measured pEC50 corresponding to "CN1CCN(c2ccc(OC(F)(F)F)c(Nc3ncc4c(n3)-c3c(c(C(N)=O)nn3CCO)CC4)c2)CC1"
Ans: 6.67

---

Test system: PSN-1
Assay: Cytotoxicity assay, pancreatic cell line panel, onvansertib +/- 1 nM INBRX-109
Type: cell-based
Conditions: Homo sapiens, PSN1, PSN-1; onvansertib + 1 nM INBRX-109
MEASURED_METRIC: EC50 (nM)
Reply with just the number (in nM).

Q: State, in one line, measured EC50 of "CN1CCN(c2ccc(OC(F)(F)F)c(Nc3ncc4c(n3)-c3c(c(C(N)=O)nn3CCO)CC4)c2)CC1"
Ans: 63

---

Test system: CAL-78
Experiment: Cell viability (CellTiter-Glo) cytotoxicity assay, INBRX-109 x CDK9 or MCL-1 inhibitor matrix, 48 h, chondrosarcoma line
Settings: flavopiridol only
MEASURED_METRIC: EC50
# output: number + unit

Q: Tell me measured EC50 for "CN1CC[C@H](c2c(O)cc(O)c3c(=O)cc(-c4ccccc4Cl)oc23)[C@H](O)C1" please.
Ans: 146 nM

---

System: LS 1034
Test: Cytotoxicity assay, colorectal cancer cell line panel, onvansertib +/- 1 nM INBRX-109
Assay type: cell-based
Details: Homo sapiens, LS-1034, LS 1034; onvansertib + 1 nM INBRX-109
MEASURED_METRIC: EC50 (nM)
The reply should be a number in nM, with the unit left off.

Q: Quick one: give measured EC50 for "CN1CCN(c2ccc(OC(F)(F)F)c(Nc3ncc4c(n3)-c3c(c(C(N)=O)nn3CCO)CC4)c2)CC1"
Ans: 199

---

Test system: HPAF-II
Assay: Cytotoxicity assay, pancreatic cell line panel, onvansertib +/- 1 nM INBRX-109
Format: cell-based
Conditions: Homo sapiens, onvansertib + 1 nM INBRX-109
MEASURED_METRIC: EC50

Q: Using known records, supply EC50 for "CN1CCN(c2ccc(OC(F)(F)F)c(Nc3ncc4c(n3)-c3c(c(C(N)=O)nn3CCO)CC4)c2)CC1"
Ans: 51.9 nM

---

System: SW837
Experiment: Cell viability (CellTiter-Glo) cytotoxicity assay, INBRX-109 x onvansertib matrix, 48 h
Assay type: cell-based
Conditions: Homo sapiens, SW837, SW837; onvansertib + 1 nM INBRX-109
MEASURED_METRIC: EC50

Q: Please list EC50 recorded for the compound CN1CCN(c2ccc(OC(F)(F)F)c(Nc3ncc4c(n3)-c3c(c(C(N)=O)nn3CCO)CC4)c2)CC1 [Onvansertib]
Ans: ~43.2 nM

---

Test system: Panc 10.05
Experiment: Cytotoxicity assay, pancreatic cell line panel, onvansertib +/- 1 nM INBRX-109
Type: cell-based
Conditions: Homo sapiens, Panc1005, Panc 10.05; onvansertib + 1 nM INBRX-109
MEASURED_METRIC: EC50
Form field: result (number plus unit)

Q: Give me measured EC50, please, for this compound: "CN1CCN(c2ccc(OC(F)(F)F)c(Nc3ncc4c(n3)-c3c(c(C(N)=O)nn3CCO)CC4)c2)CC1"
Ans: 81.7 nM

---

Test system: AsPC-1
Experiment: Cytotoxicity assay, pancreatic cell line panel, onvansertib +/- 1 nM INBRX-109
Type: cell-based
Details: Homo sapiens, ASPC1, AsPC-1; onvansertib only
MEASURED_METRIC: pEC50
Please express pEC50 as -log10 of the molar concentration.

Q: Give pEC50 for "CN1CCN(c2ccc(OC(F)(F)F)c(Nc3ncc4c(n3)-c3c(c(C(N)=O)nn3CCO)CC4)c2)CC1"
Ans: 6.35

---

System: COLO320DM
Experiment: Cytotoxicity assay, colorectal cancer cell line panel, onvansertib +/- 1 nM INBRX-109
Type: cell-based
Settings: Homo sapiens, COLO 320DM, onvansertib + 1 nM INBRX-109
MEASURED_METRIC: EC50 (µM)
Provide only the numeric value, understood in µM.

Q: Indicate the recorded EC50 value for this molecule: "CN1CCN(c2ccc(OC(F)(F)F)c(Nc3ncc4c(n3)-c3c(c(C(N)=O)nn3CCO)CC4)c2)CC1"
Ans: 0.283

---

Tested on: SW-948
Experiment: Cytotoxicity assay, colorectal cancer cell line panel, onvansertib +/- 1 nM INBRX-109
Type: cell-based
Details: Homo sapiens, SW948, SW-948; onvansertib only
MEASURED_METRIC: pEC50
Scale note: pEC50 = -log10(concentration in M).

Q: Name the recorded pEC50 of "CN1CCN(c2ccc(OC(F)(F)F)c(Nc3ncc4c(n3)-c3c(c(C(N)=O)nn3CCO)CC4)c2)CC1" , assay system SW-948.
Ans: 7.01

---

Tested on: LS 123
Experiment: Cytotoxicity assay, colorectal cancer cell line panel, onvansertib +/- 1 nM INBRX-109
Format: cell-based
Settings: Homo sapiens, LS-123, LS 123; onvansertib only
Procedure: Monolayer cultures of each cell line were harvested for compound screening as detailed below. Also on day 2, test and control articles were added. On day 4, viability measurements were taken. […] Data was graphed in GraphPad Prism 9. The results for a panel of colorectal cancer cell lines are shown in Table 3 and FIGS. 4-6, and the results for a panel of pancreatic cell lines are shown in Table 4 and FIGS. 7 and 8.
MEASURED_METRIC: pEC50
Please keep in mind that pEC50 is minus log10 of the molar concentration; only the number is needed.

Q: For "CN1CCN(c2ccc(OC(F)(F)F)c(Nc3ncc4c(n3)-c3c(c(C(N)=O)nn3CCO)CC4)c2)CC1" , write its pEC50.
Ans: 6.82

---

Tested on: LS411N
Test: Cell viability (CellTiter-Glo) cytotoxicity assay, INBRX-109 x onvansertib matrix, 48 h
Assay type: cell-based
Conditions: Homo sapiens, LS-411N, onvansertib + 1 nM INBRX-109, read-out: EC50
MEASURED_METRIC: EC50

Q: Tell me measured EC50 for "CN1CCN(c2ccc(OC(F)(F)F)c(Nc3ncc4c(n3)-c3c(c(C(N)=O)nn3CCO)CC4)c2)CC1" please.
Ans: ~10.3 nM

---

Test system: CAL-78
Assay: Cell viability (CellTiter-Glo) cytotoxicity assay, INBRX-109 x CDK9 or MCL-1 inhibitor matrix, 48 h, chondrosarcoma line
Details: flavopiridol + 1 nM INBRX-109
MEASURED_METRIC: EC50 (nM)
Field format: number, assumed nM, no unit text.

Q: Write down EC50 measured for item CN1CC[C@H](c2c(O)cc(O)c3c(=O)cc(-c4ccccc4Cl)oc23)[C@H](O)C1 [Flavopiridol]
Ans: 115

---

Test system: KP4
Assay: Cytotoxicity assay, pancreatic cell line panel, onvansertib +/- 1 nM INBRX-109
Type: cell-based
Conditions: Homo sapiens, KP-4, KP4; onvansertib + 1 nM INBRX-109
MEASURED_METRIC: pEC50
Scale: pEC50 equals -log10([C]), with [C] in mol/L.

Q: Provide only the value of recorded pEC50 for "CN1CCN(c2ccc(OC(F)(F)F)c(Nc3ncc4c(n3)-c3c(c(C(N)=O)nn3CCO)CC4)c2)CC1"
Ans: 7.08

---

Tested on: LS174T
Test: Cytotoxicity assay, colorectal cancer cell line panel, onvansertib +/- 1 nM INBRX-109
Type: cell-based
Settings: Homo sapiens, onvansertib + 1 nM INBRX-109
MEASURED_METRIC: EC50 (nM)
Just the number please, in nM, no unit attached.

Q: Supply measured EC50 of "CN1CCN(c2ccc(OC(F)(F)F)c(Nc3ncc4c(n3)-c3c(c(C(N)=O)nn3CCO)CC4)c2)CC1" in your reply.
Ans: 109
